biological target: Aβ(1-40) (Homo sapiens); test: BASST (Beta-Amyloid Self-seeding, ThioflavinT), inhibition of self-seeded amyloid fibril growth; assay type: biochemical; set-up: 30 µM soluble Aβ (1-40) in deionized water in assay buffer; conditions: read-out: BASST IC50; 30 µM soluble Aβ (1-40), 37°C, 3 to 5 hours, thioflavin T fluorescence; letter in parentheses = lot of compound (no letter = Lot P)
readoutLabel: pIC50
Worth noting: pIC50 values are minus log10 of concentrations stated in mol/L.

O=C(O)c1cccnc1Nc1ccc2c(c1)CN(c1ccc(Cl)c(Cl)c1)C2
6.52
O=C(O)c1ccccc1Nc1ccc2c(c1)CN(c1ccc(Cl)c(C(F)(F)F)c1)C2
5.52

Moving on to another molecule below.
Qu. Which pIC50 value is on record for `O=C(O)c1cc([N+](=O)[O-])ccc1Nc1ccc2c(c1)CN(c1ccc(Cl)c(C(F)(F)F)c1)C2` ?
Ans. 6.00

---

molecular target: Aβ (1-42) (Homo sapiens); construct: Required Aβ (1-42)(California Peptide) was dried from its hexafluoroisopropanol (HFIP) stock solution; purchased California Peptide; assay: BATYM assay, Aβ (1-42) aggregation, Thioflavin T fluorescence; type: biochemical; conditions: Aβ 1-42 final concentration 100 µM, 37°C, 1 day, letter in parentheses = lot of compound (no letter = Lot P), read-out: BATYM IC50
Sequence (P05067 672-713): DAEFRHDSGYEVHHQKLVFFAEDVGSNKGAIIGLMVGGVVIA
The threshold is 30 µM. Values of IC50 beneath it are tagged condition met; values meeting or exceeding it are tagged condition not met.

Nc1ccc(Nc2ccc3c(c2)CN(c2ccc(Cl)c(Cl)c2)C3)c(C(=O)O)c1
condition met
COc1cc(N2Cc3ccc(Nc4ccccc4C#N)cc3C2)cc(OC)c1OC
condition not met
COc1cccc(N2Cc3ccc(Nc4ccc([N+](=O)[O-])cc4C(=O)O)cc3C2)c1
condition met
Cc1ccc(N2Cc3ccc(Nc4ccc([N+](=O)[O-])cc4C(=O)O)cc3C2)cc1C
condition met
O=C(O)c1cc([N+](=O)[O-])ccc1Nc1ccc2c(c1)CN(c1ccccc1)C2
condition met
O=C(O)c1cc(F)ccc1Nc1ccc2c(c1)CN(c1ccc(Cl)c(Cl)c1)C2
condition not met

Qu. Would you kindly verify if IC50 of `O=C(O)c1ccccc1Nc1ccc2c(c1)CN(c1cccc(F)c1)C2` is strictly less than 30 µM?
Ans. condition not met

---

molecular target: Aβ (1-40) peptide (Homo sapiens); construct: 10 µL 0.5 mg/mL Aβ (1-40) peptide in 20% HFIP; assay: BAPA (Beta-Amyloid Peptide Aggregation, pH 6.0), filtration endpoint assay; assay type: biochemical; details: Aβ (1-40) 33 µM, pH 6.0, 2 to 4 hours at room temperature; letter in parentheses = lot of compound (no letter = Lot P); read-out: BAPA IC50
pIC50: −log10 of the molar value.
pIC50 values for the compounds below.

COc1cccc(N2Cc3ccc(Nc4ccc([N+](=O)[O-])cc4C(=O)O)cc3C2)c1
< 4.22
O=C(O)c1cc([N+](=O)[O-])ccc1Nc1ccc2c(c1)CN(c1cccc(F)c1)C2
< 4.22

Let's switch to this compound now.
Qu. Give the reported pIC50 for `O=C(O)c1cc([N+](=O)[O-])ccc1Nc1ccc2c(c1)CN(c1ccc(Cl)cc1)C2` (system: Aβ (1-40) peptide (Homo sapiens)).
Ans. < 4.00
